Collected Efficacy values appear next to each entry.
# Test system: Cell line
# test: Efficacy for transcriptional activation of TAT in Human cell native protein assay expressed as percentage of the maximal response of Dexamethasone
# Type: functional
Note: unit % is implicit; provide only the numeric part.

Solved entries (count: 3):
{"columns": ["molecule", "unit label", "Efficacy"],
 "data": [
  ["COc1cccc2c1-c1ccc3c(c1[C@H]([C@@H]1C=C(C)CCC1)O2)C(C)=CC(C)(C)N3", "%", 67],
  ["C[C@]12C=CC(=O)C=C1CC[C@@H]1[C@@H]2[C@@H](O)C[C@@]2(C)[C@H]1CC[C@]2(O)C(=O)CO [PREDNISOLONE]", "%", 95],
  ["C=CCC1Oc2cccc(OC)c2-c2ccc3c(c21)C(C)=CC(C)(C)N3 (stereo in doubt; (-)4a) [AL-43]", "%", 71]
]}

Shifting focus to the molecule that follows.
Problem: Can you look up Efficacy on Cell line for `COc1cccc2c1-c1ccc3c(c1[C@H]([C@H]1C=C(C)CCC1)O2)C(C)=CC(C)(C)N3` ?
Solution: 49

====

# system tested: Glucocorticoid receptor (Homo sapiens, UniProt P04150)
# Sequence (P04150 whole entry): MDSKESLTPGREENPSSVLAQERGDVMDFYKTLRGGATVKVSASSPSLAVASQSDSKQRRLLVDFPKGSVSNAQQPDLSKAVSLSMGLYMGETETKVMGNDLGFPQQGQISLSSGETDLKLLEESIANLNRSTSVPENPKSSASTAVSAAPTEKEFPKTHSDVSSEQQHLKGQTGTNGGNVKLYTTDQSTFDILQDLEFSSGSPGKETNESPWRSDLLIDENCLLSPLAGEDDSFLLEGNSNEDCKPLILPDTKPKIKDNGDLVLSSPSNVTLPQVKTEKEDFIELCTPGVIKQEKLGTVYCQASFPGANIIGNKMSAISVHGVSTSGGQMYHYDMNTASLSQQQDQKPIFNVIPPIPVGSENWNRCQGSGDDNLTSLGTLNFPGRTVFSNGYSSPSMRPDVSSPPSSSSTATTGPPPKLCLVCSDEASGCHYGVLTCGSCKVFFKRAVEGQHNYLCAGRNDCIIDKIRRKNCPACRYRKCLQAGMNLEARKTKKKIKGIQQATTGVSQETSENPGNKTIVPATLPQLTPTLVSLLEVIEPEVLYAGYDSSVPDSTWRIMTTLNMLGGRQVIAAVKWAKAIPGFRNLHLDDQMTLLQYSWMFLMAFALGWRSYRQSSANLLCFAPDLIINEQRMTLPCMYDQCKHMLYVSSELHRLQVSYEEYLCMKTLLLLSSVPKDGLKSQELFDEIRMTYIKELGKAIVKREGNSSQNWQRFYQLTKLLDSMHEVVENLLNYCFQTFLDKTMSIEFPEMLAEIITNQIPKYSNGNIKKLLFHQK
# test: Inhibition of transcriptional repression in CV-1 cells expressing glucocorticoid receptor
# Assay type: functional, cell-based
pIC50: −log10 of the molar value.
recorded metric: pIC50

{"columns": ["molecule", "test value"],
 "data": [
  ["C=CC(C)(C)C1Oc2cccc(OC)c2-c2ccc3c(c21)C(C)=CC(C)(C)N3 (stereo not drawn)", "< 5.30"]
]}

Problem: Field request: pIC50 | item: `COc1cccc2c1-c1ccc3c(c1[C@@H]([C@@H]1C=C(C)CCC1)O2)C(C)=CC(C)(C)N3`
Solution: < 5.30

Problem: Field request: pIC50 | item: C=C(CC1Oc2cccc(OC)c2-c2ccc3c(c21)C(C)=CC(C)(C)N3)C(=O)OC (stereo not drawn)
Solution: < 5.30
